# apparent KD of MS2 coat protein annotations
System: MS2 coat protein
method: apparent KD of MS2 coat protein; designed switch direction (-1 OFF switch, 1 ON switch): -1; higher = weaker reporter binding
condition context: Eterna round: R95; input ligand: microRNA oligo, concentration not stated
parameter measured: apparent KD of MS2 coat protein (nM)

[[record]]
item_sequence = "GGUGAGAGCAAGGAUAUGCAGAAGAGAGAAAGAGCAGAAGGUGCUACAUGAGGAUCACCCAUGUUGGAUGUGUU [JR_E6_Sub014] (puzzle: Exclusion 6)"
units_of_measure = "nM"
number = 35.6

[[record]]
item_sequence = "ACAAAGGUAGGAUAUCGGACUAUGGACAUGAGGAUCACCCAUGUGCGUCCAGUGUCCAACCGAGAAGGACCCAAAA [Beinge] (puzzle: Exclusion 5)"
units_of_measure = "nM"
number = 86.1

[[record]]
item_sequence = "GGUUGGCGAGGAUAUACAUGAGGAUCACCCAUGUGAGAGAAAAAAGUGAGGAAGAAACGUAGAAGGCGCUGACG [salish99_ex3_r3_037] (puzzle: Exclusion 3)"
units_of_measure = "nM"
number = 34.2

[[record]]
item_sequence = "AAUCCACAUGAGGAUCACCCAUGUGAGGAUAUGAUACUAUGUACUUCGGUACAUAGUAUCAGAAGGCACAUGAA [Ex1-3: 50] (puzzle: Exclusion 1)"
units_of_measure = "nM"
number = 64.2

[[record]]
item_sequence = "UUUAAUUUUUUUUUUUUACAAGCUUUUUGCUCGUCUUAUACAUGAGGAUCACCCAUGUAGGUGAGGAGUAAAUUAUC [JMF 62] (puzzle: Sensor v3, turn-off variant 2)"
units_of_measure = "nM"
number = 111

[[record]]
item_sequence = "CUGGUCCGAGGAUAUAUUUAGUGAAACAUGAGGAUCACCCAUGUUAUUAGAUGGAUGUAAAUAGAAGGCGGACUAG [Mat - Exclusion 5 - JL mod - D63] (puzzle: Exclusion 5)"
units_of_measure = "nM"
number = 20.4

[[record]]
item_sequence = "AGACAGUCAGGAUAUACAUGAGGAUCACCCAUGUUGAGAUGUGAAAGGGCGGGAGUAGGUAGAAGGGACGAGAG [JR_Exclu3_Sub039] (puzzle: Exclusion 3)"
units_of_measure = "nM"
number = 26.7

[[record]]
item_sequence = "UUUUAGCUAGGAUAUACAUUUUUUUUAUUAUCCUCAUUAUUACAUGAGGAUCACCCAUGUAGAAGGAGCAUUUU [My Design] (puzzle: Exclusion 2)"
units_of_measure = "nM"
number = 219

[[record]]
item_sequence = "CAUACAGUAGUCAGGAUAUUGGAAGAGACACGGAACGAGAAGGGACAUGAGGAUCACCCAUGUAUACUGUAAAG [EX-4 Malc #4] (puzzle: Brourd's mod of Exclusion 4)"
units_of_measure = "nM"
number = 23.8

[[record]]
item_sequence = "GGAUCGAUAGUGAGGAUAUACCACUGGAUACAGUGGUAGAAGGCACAUGAGGAUCACCCAUGUCCUAACGAUCC [Fiskers BMX 4 - 49] (puzzle: Brourd's mod of Exclusion 4)"
units_of_measure = "nM"
number = 17.6

[[record]]
item_sequence = "CUUGUGUGAGGAUAUGACAAUGGUAUCUUCGGAUACCAUUGUCAGAAGGUACAUGAGGAUCACCCAUGUAGAUC [Exclusion 4 - Mod Brourd Ex 4-3: 20] (puzzle: Exclusion 4)"
units_of_measure = "nM"
number = 72

